Test: NCI Yeast Anticancer Drug Screen. Data for the rad50 strain (AID 155);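 note: 0% = growth of vehicle-only cultures of the same strain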
Details: S. cerevisiae rad50 strain growth inhibition; at 50.0 µM; active compounds read high
About 79,000 compounds went through this panel and 15% of them were active in at least one assay; those are over-represented in the sample as a whole. Where a SMILES comes first, the peptide text is derived from it. Bridges are numbered along the chain shown (N, C = ends). Roman numbers before positions name the chains, in order. The star is where a group is joined. Cbz = O=C(OCc1ccccc1)*
Documented growth inhibition across a set of compounds
ATTRIBUTE_MEASURED: growth inhibition (%)

[
  {
    "COMPOUND": "COC(C)CCOC(=O)c1ccccc1C (stereo not drawn)",
    "ATTRIBUTE_MEASURED": "growth inhibition",
    "READOUT_NUMBER": 10
  },
  {
    "COMPOUND": "Nc1ccc(C(=O)O)cc1[N+](=O)[O-]",
    "ATTRIBUTE_MEASURED": "growth inhibition",
    "READOUT_NUMBER": -0.85
  },
  {
    "COMPOUND": "CCCCCCC1(C)OCC(c2ccccc2)O1 (stereo not drawn)",
    "ATTRIBUTE_MEASURED": "growth inhibition",
    "READOUT_NUMBER": -0.1
  },
  {
    "COMPOUND": "CSc1ccc(NC(=O)SCc2ccccc2)cc1",
    "ATTRIBUTE_MEASURED": "growth inhibition",
    "READOUT_NUMBER": -3.5
  },
  {
    "COMPOUND": "COc1ccc(NC(=O)C(=O)Cc2nc3ccc([N+](=O)[O-])cc3[nH]c2=O)c(OC)c1",
    "ATTRIBUTE_MEASURED": "growth inhibition",
    "READOUT_NUMBER": 9.85
  },
  {
    "COMPOUND": "COc1ccc2c(c1OC)C(=O)OC2(O)C1=NCCc2cc3c(cc21)OCO3 (stereo not drawn)",
    "ATTRIBUTE_MEASURED": "growth inhibition",
    "READOUT_NUMBER": 19
  },
  {
    "COMPOUND": "CC(C)C(NC(=O)C(CSSCC(NC(=O)OCc1ccccc1)C(=O)NC(C(=O)O)C(C)C)NC(=O)OCc1ccccc1)C(=O)O (stereo not drawn) (I: Cbz-Cys-Val-OH / II: Cbz-Cys-Val-OH; disulfide I:1-II:1; configuration not given here)",
    "ATTRIBUTE_MEASURED": "growth inhibition",
    "READOUT_NUMBER": 1.4
  },
  {
    "COMPOUND": "Cc1nn(C)c(NC(=O)c2ccccc2O)c1SC#N",
    "ATTRIBUTE_MEASURED": "growth inhibition",
    "READOUT_NUMBER": 43.3
  },
  {
    "COMPOUND": "CCOc1ccc2nc(NC(=O)C(=O)C(C(=O)c3ccccc3F)C3OC(=O)c4ccccc43)sc2c1 (stereo not drawn)",
    "ATTRIBUTE_MEASURED": "growth inhibition",
    "READOUT_NUMBER": 10.9
  },
  {
    "COMPOUND": "O=C1c2cccc3cccc(c23)C(=O)N1CCCN(CCO)CCO",
    "ATTRIBUTE_MEASURED": "growth inhibition",
    "READOUT_NUMBER": -1.25
  },
  {
    "COMPOUND": "CC(=O)NCCCCN(CCCNC(C)=O)C(=O)CNS(=O)(=O)c1cccc2c(N(C)C)cccc12",
    "ATTRIBUTE_MEASURED": "growth inhibition",
    "READOUT_NUMBER": -11.2
  },
  {
    "COMPOUND": "N#CCCC(=O)c1ccccc1",
    "ATTRIBUTE_MEASURED": "growth inhibition",
    "READOUT_NUMBER": -1.5
  },
  {
    "COMPOUND": "Clc1ccc(-c2csc3nc(-c4cccs4)nn23)cc1",
    "ATTRIBUTE_MEASURED": "growth inhibition",
    "READOUT_NUMBER": -0.05
  },
  {
    "COMPOUND": "CC(CS)CS",
    "ATTRIBUTE_MEASURED": "growth inhibition",
    "READOUT_NUMBER": 6.85
  },
  {
    "COMPOUND": "CCOC(=O)C(c1ccccc1)N(CCCN(CC)CC)c1ccccc1 (stereo not drawn)",
    "ATTRIBUTE_MEASURED": "growth inhibition",
    "READOUT_NUMBER": -10.8
  },
  {
    "COMPOUND": "CC(C)=CCC/C(C)=C/CN",
    "ATTRIBUTE_MEASURED": "growth inhibition",
    "READOUT_NUMBER": 9.25
  },
  {
    "COMPOUND": "COc1cccc2c(C(=O)O)cc(-c3ccc(Cl)cc3)nc12",
    "ATTRIBUTE_MEASURED": "growth inhibition",
    "READOUT_NUMBER": 7.85
  },
  {
    "COMPOUND": "CN(C)/C(=N\\N=C(/c1ccc(Cl)cc1)N(C)C)c1ccc(Cl)cc1",
    "ATTRIBUTE_MEASURED": "growth inhibition",
    "READOUT_NUMBER": -15.8
  },
  {
    "COMPOUND": "CC(C)CN(CC(=O)Nc1cccc(Cl)c1)CC(C)C",
    "ATTRIBUTE_MEASURED": "growth inhibition",
    "READOUT_NUMBER": -4.35
  },
  {
    "COMPOUND": "Nc1nc(N)nc(CC(=O)O)n1",
    "ATTRIBUTE_MEASURED": "growth inhibition",
    "READOUT_NUMBER": -16.5
  },
  {
    "COMPOUND": "NNC(=O)c1nnc(N)o1",
    "ATTRIBUTE_MEASURED": "growth inhibition",
    "READOUT_NUMBER": -11.6
  },
  {
    "COMPOUND": "COc1cccc(C2=CCCCCC2)c1OC",
    "ATTRIBUTE_MEASURED": "growth inhibition",
    "READOUT_NUMBER": 1.15
  },
  {
    "COMPOUND": "O=C(O)/C(O)=C(/O)C(=O)O.[NH-]C1CCCCC1[NH-].[Pt+2]",
    "ATTRIBUTE_MEASURED": "growth inhibition",
    "READOUT_NUMBER": 27.3
  }
]

---

Assay: NCI Yeast Anticancer Drug Screen. Data for the mec2-1 strain (AID 157)
Settings: S. cerevisiae mec2-1 strain, at 50.0 µM, active compounds read high
This is part of a sample that, as a whole, favours compounds with a hit. Of some 79,000 tested, about 15% had one in any assay.
ATTRIBUTE_MEASURED: growth inhibition (%)

[
  {
    "COMPOUND": "CCC(=O)C1C(=O)CC(=O)C(C)C1c1ccccc1OC (configuration not stated)",
    "READOUT_NUMBER": -6.6
  },
  {
    "COMPOUND": "S=C(Nc1ccccc1)N1N=C2c3ccccc3CC[C@H]2[C@@H]1c1ccccc1",
    "READOUT_NUMBER": -37.9
  },
  {
    "COMPOUND": "CCOC(=O)c1[nH]c(C)c(/C(C)=N\\NC(N)=O)c1C",
    "READOUT_NUMBER": -14.7
  },
  {
    "COMPOUND": "CC1(C)C/C(=C\\c2cccc(Cl)c2)C(=O)c2ccccc21",
    "READOUT_NUMBER": 16.6
  },
  {
    "COMPOUND": "N#Cc1cc(N2CCCCC2)ccc1[N+](=O)[O-]",
    "READOUT_NUMBER": -8.35
  },
  {
    "COMPOUND": "Clc1nncc2sc(-c3ccccc3)nc12",
    "READOUT_NUMBER": -1.7
  },
  {
    "COMPOUND": "CC1(C)OCC(C(O)C2OC(C)(C)OC2/C=N\\O)O1 (configuration not stated)",
    "READOUT_NUMBER": -18
  },
  {
    "COMPOUND": "CC(Oc1cc(Cl)c(Cl)cc1Cl)C(=O)NC(Cc1ccccc1)C(=O)O (configuration not stated)",
    "READOUT_NUMBER": 9.45
  },
  {
    "COMPOUND": "N#C/C(=C(/Cc1ccc(F)cc1)NP(=O)(c1ccccc1)c1ccccc1)c1ccc(F)cc1",
    "READOUT_NUMBER": -3.7
  },
  {
    "COMPOUND": "CSc1ncnc2ncn(C)c12",
    "READOUT_NUMBER": -2.6
  },
  {
    "COMPOUND": "CC(CN1CCCCC1)SSC(C)CN1CCCCC1 (configuration not stated)",
    "READOUT_NUMBER": 14.9
  },
  {
    "COMPOUND": "CCCC1OCC(CC)C(CCC)O1 (configuration not stated)",
    "READOUT_NUMBER": 4.95
  }
]
